- Tested on: UniProt:Q00535
- Sequence (Q00535 whole entry): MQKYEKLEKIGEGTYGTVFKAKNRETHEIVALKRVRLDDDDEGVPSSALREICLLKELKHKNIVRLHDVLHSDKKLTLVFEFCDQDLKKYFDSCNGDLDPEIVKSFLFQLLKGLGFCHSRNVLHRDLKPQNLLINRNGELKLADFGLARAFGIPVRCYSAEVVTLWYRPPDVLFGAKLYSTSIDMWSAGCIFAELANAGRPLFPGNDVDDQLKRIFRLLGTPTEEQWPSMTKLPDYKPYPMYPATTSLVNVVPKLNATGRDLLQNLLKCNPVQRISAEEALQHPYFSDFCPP
- Sequence (Q15078 whole entry partner): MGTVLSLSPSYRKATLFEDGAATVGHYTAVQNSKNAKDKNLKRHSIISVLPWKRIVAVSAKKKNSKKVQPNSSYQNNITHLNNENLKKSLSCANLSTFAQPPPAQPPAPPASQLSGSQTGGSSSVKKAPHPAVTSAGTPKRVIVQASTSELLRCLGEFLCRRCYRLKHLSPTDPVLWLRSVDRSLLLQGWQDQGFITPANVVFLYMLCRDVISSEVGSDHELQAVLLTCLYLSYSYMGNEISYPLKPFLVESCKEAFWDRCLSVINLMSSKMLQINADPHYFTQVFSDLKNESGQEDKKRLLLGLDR
- Assay method text: CDK5 in vitro kinase inhibition (protocol similar to Example 14)
- Assay type: biochemical
- Assay conditions: 100 nM; mean of three (standard deviation); read-out: CDK5 % remaining kinase activity after incubation with 100 nM of compound
remaining activity at 0.1 µM under 90% gets 1.0, anything at or over 90% gets 0.0.

Q: Hi there! Is remaining activity at 0.1 µM for `CC(C)c1cnn2c(NCc3ccccc3)cc(NCCCCCCC(=N)N)nc12` below 90%, do you know?
A: 0.0

Q: Hi there! Is remaining activity at 0.1 µM for `CC(C)c1cnn2c(NCc3ccccc3F)cc(NCCO)nc12` below 90%, do you know?
A: 1.0

Q: Hi there! Is remaining activity at 0.1 µM for `CC(C)c1cnn2c(NCc3ccccc3F)cc(N[C@@H](CO)CCCCCCc3ccc4ccccc4n3)nc12` below 90%, do you know?
A: 0.0

Q: Hi there! Is remaining activity at 0.1 µM for CC(C)c1cnn2c(NCc3ccccc3F)cc(NCC(O)CO)nc12 (centres unmarked) below 90%, do you know?
A: 1.0

Q: Hi there! Is remaining activity at 0.1 µM for `CC(C)c1cnn2c(NCc3ccccc3)cc(N[C@@H](CO)CCCCCCc3cncnc3)nc12` below 90%, do you know?
A: 0.0

Q: Hi there! Is remaining activity at 0.1 µM for `CC[C@H](CO)Nc1cc(NCc2ccccc2)n2ncc(C(C)C)c2n1` below 90%, do you know?
A: 1.0

Q: Hi there! Is remaining activity at 0.1 µM for CC(C)c1cnn2c(NCc3ccccc3F)cc(NC(CO)CCCCCCCc3ccc(F)nc3)nc12 (centres unmarked) below 90%, do you know?
A: 0.0

Q: Hi there! Is remaining activity at 0.1 µM for `CC(C)c1cnn2c(NCc3ccccc3)cc(N[C@@H](CO)[C@H](O)CO)nc12` below 90%, do you know?
A: 1.0

Q: Hi there! Is remaining activity at 0.1 µM for `C=C[C@H](CO)Nc1cc(NCc2ccccc2)n2ncc(C(C)C)c2n1` below 90%, do you know?
A: 1.0

Q: Hi there! Is remaining activity at 0.1 µM for `CC(C)c1cnn2c(NCc3ccccc3F)cc(NCCCCCN)nc12` below 90%, do you know?
A: 1.0

Q: Hi there! Is remaining activity at 0.1 µM for `CC(C)c1cnn2c(NCc3ccccc3)cc(N[C@@H](CO)[C@@H](O)CO)nc12` below 90%, do you know?
A: 1.0

Q: Hi there! Is remaining activity at 0.1 µM for `CC(C)c1cnn2c(NCc3ccccc3F)cc(NCCCCCCC#N)nc12` below 90%, do you know?
A: 0.0

Q: Hi there! Is remaining activity at 0.1 µM for `CC(C)c1cnn2c(NCc3ccccc3)cc(NCCCCCCC#N)nc12` below 90%, do you know?
A: 0.0

Q: Hi there! Is remaining activity at 0.1 µM for CC(C)c1cnn2c(NCc3ccccc3)cc(NC3CCC(Nc4cc(NCc5ccccc5)n5ncc(C(C)C)c5n4)CC3)nc12 (centres unmarked) below 90%, do you know?
A: 0.0

Q: Hi there! Is remaining activity at 0.1 µM for `CC(C)c1cnn2c(NCc3ccccc3)cc(N[C@@H](CO)CCCCCCc3ccccn3)nc12` below 90%, do you know?
A: 0.0

---

- Tested on: CDK2/cyclin A complex (Homo sapiens, UniProt P24941)
- Construct: purchased Proqinase GmbH, Germany
- Assay method text: CDK2/cyclin A kinase assay (as for CDK7)
- Format: biochemical
- Assay conditions: 100 nM; mean of three (standard deviation); read-out: CDK2 % remaining kinase activity after incubation with 100 nM of compound
remaining activity at 0.1 µM under 80% gets True, anything at or over 80% gets False.

Q: Hi there! Is remaining activity at 0.1 µM for CC(C)c1cnn2c(NCc3ccccc3F)cc(N[C@@H](CO)CCCCCCN)nc12 [ICEC0052] below 80%, do you know?
A: False

Q: Hi there! Is remaining activity at 0.1 µM for CC(C)c1cnn2c(N[C@@H](C)c3ccccc3)cc(NCCCCCCNc3cc(N[C@@H](C)c4ccccc4)n4ncc(C(C)C)c4n3)nc12 [ICEC0236] below 80%, do you know?
A: True

Q: Hi there! Is remaining activity at 0.1 µM for CC(C)c1cnn2c(NCc3ccccc3)cc(NC(CO)CCCCCCc3ccccn3)nc12 (stereo not drawn) [ICEC0159] below 80%, do you know?
A: False

Q: Hi there! Is remaining activity at 0.1 µM for CC(C)c1cnn2c(NCc3ccccc3)cc(N[C@@H](CO)CCCCCCCc3cccnc3)nc12 [ICEC0238] below 80%, do you know?
A: True

Q: Hi there! Is remaining activity at 0.1 µM for CC(C)c1cnn2c(NCc3ccccc3F)cc(NCCCCCCC#N)nc12 [ICEC-0186] below 80%, do you know?
A: True

Q: Hi there! Is remaining activity at 0.1 µM for CC(C)c1cnn2c(NCc3ccccc3F)cc(NCCO)nc12 [ICEC0297] below 80%, do you know?
A: False

Q: Hi there! Is remaining activity at 0.1 µM for CC(C)c1cnn2c(NCc3ccccc3)cc(NCCN3CCNCC3)nc12 [ICEC0216] below 80%, do you know?
A: True

Q: Hi there! Is remaining activity at 0.1 µM for CC(C)c1cnn2c(NCc3ccccc3)cc(NCCCCCCC(=N)N)nc12 [ICEC-0187] below 80%, do you know?
A: True

Q: Hi there! Is remaining activity at 0.1 µM for CC(C)c1cnn2c(NCc3ccccc3)cc(N[C@@H](CO)CCCCCCc3ccccn3)nc12 [ICEC-0325] below 80%, do you know?
A: True

Q: Hi there! Is remaining activity at 0.1 µM for CC(C)c1cnn2c(NCc3ccccc3)cc(NCCCCCCc3ccc(N)nc3)nc12 [ICEC0210] below 80%, do you know?
A: False

Q: Hi there! Is remaining activity at 0.1 µM for CC(C)c1cnn2c(NCc3ccccc3)cc(NCCN3CCOCC3)nc12 [ICEC0259] below 80%, do you know?
A: False

Q: Hi there! Is remaining activity at 0.1 µM for CC[C@H](CO)Nc1cc(NCc2ccccc2)n2ncc(C(C)C)c2n1 [ICEC0067] below 80%, do you know?
A: False

Q: Hi there! Is remaining activity at 0.1 µM for CC(C)c1cnn2c(NCc3ccccc3)cc(NCCCCN)nc12 [ICEC0277] below 80%, do you know?
A: False

Q: Hi there! Is remaining activity at 0.1 µM for CC(C)c1cnn2c(NCc3ccccc3F)cc(NC(CO)CO)nc12 [ICEC0298] below 80%, do you know?
A: False

Q: Hi there! Is remaining activity at 0.1 µM for CC(C)c1cnn2c(NCc3ccccc3F)cc(NCCCCCN)nc12 [ICEC0232] below 80%, do you know?
A: False

Q: Hi there! Is remaining activity at 0.1 µM for CC(C)c1cnn2c(NCc3ccccc3F)cc(NCCN3CCNCC3)nc12 [ICEC0218] below 80%, do you know?
A: True

Q: Hi there! Is remaining activity at 0.1 µM for CC(C)c1cnn2c(NCc3ccccc3)cc(NCCCCCCC#N)nc12 [ICEC0179] below 80%, do you know?
A: True

Q: Hi there! Is remaining activity at 0.1 µM for CC(C)c1cnn2c(NCc3ccccc3F)cc(NCC(O)CO)nc12 (stereo not drawn) [ICEC0295] below 80%, do you know?
A: False

Q: Hi there! Is remaining activity at 0.1 µM for CC(C)c1cnn2c(NCc3ccccc3)cc(NC3CCC(Nc4cc(NCc5ccccc5)n5ncc(C(C)C)c5n4)CC3)nc12 (stereo not drawn) [ICEC0291] below 80%, do you know?
A: False

Q: Hi there! Is remaining activity at 0.1 µM for CC(C)c1cnn2c(NCc3ccccc3F)cc(NC(CO)CCCCCCCc3cncnc3)nc12 (stereo not drawn) [ICEC0168] below 80%, do you know?
A: False

Q: Hi there! Is remaining activity at 0.1 µM for CC(C)c1cnn2c(NCc3ccccc3F)cc(NCCCCCNc3cc(NCc4ccccc4F)n4ncc(C(C)C)c4n3)nc12 [ICEC0241] below 80%, do you know?
A: True

Q: Hi there! Is remaining activity at 0.1 µM for CC(C)c1cnn2c(NCc3ccccc3)cc(Cl)nc12 [ICEC0006] below 80%, do you know?
A: True

Q: Hi there! Is remaining activity at 0.1 µM for CC(C)c1cnn2c(NCc3ccccc3F)cc(NCCCCCCc3ccc(N)nc3)nc12 [ICEC0211] below 80%, do you know?
A: False

Q: Hi there! Is remaining activity at 0.1 µM for C=C[C@H](CO)Nc1cc(NCc2ccccc2)n2ncc(C(C)C)c2n1 [ICEC0065] below 80%, do you know?
A: False

Q: Hi there! Is remaining activity at 0.1 µM for CC(C)c1cnn2c(NCc3ccccc3F)cc(NC(CO)CCCCCCc3ccccn3)nc12 (stereo not drawn) [ICEC0160] below 80%, do you know?
A: False

Q: Hi there! Is remaining activity at 0.1 µM for CC(C)c1cnn2c(NCc3ccccc3F)cc(NCCCCCCCNS(C)(=O)=O)nc12 [ICEC0212] below 80%, do you know?
A: False

Q: Hi there! Is remaining activity at 0.1 µM for CC(C)c1cnn2c(NCc3ccccc3)cc(N[C@@H](CO)CCCCCCN)nc12 [ICEC0050] below 80%, do you know?
A: True

Q: Hi there! Is remaining activity at 0.1 µM for CC(C)c1cnn2c(NCc3ccccc3)cc(NCCOCCO)nc12 [ICEC0063] below 80%, do you know?
A: False

Q: Hi there! Is remaining activity at 0.1 µM for CC(C)c1cnn2c(NCc3ccccc3F)cc(N[C@@H](CO)CCCCCN)nc12 [ICEC0055] below 80%, do you know?
A: True

Q: Hi there! Is remaining activity at 0.1 µM for CC(C)c1cnn2c(NCc3ccccc3F)cc(N[C@H]3CC[C@H](N)CC3)nc12 [ICEC0229] below 80%, do you know?
A: True

Q: Hi there! Is remaining activity at 0.1 µM for CC(C)c1cnn2c(NCc3ccccc3)cc(N[C@@H](CO)CCCCCCCc3ccc(F)nc3)nc12 [ICEC0141] below 80%, do you know?
A: False

Q: Hi there! Is remaining activity at 0.1 µM for CC(C)c1cnn2c(NCc3ccccc3F)cc(NCCCCCCN)nc12 [ICEC-0326] below 80%, do you know?
A: True

Q: Hi there! Is remaining activity at 0.1 µM for CC(C)c1cnn2c(NCc3ccc(Cl)cc3)cc(Cl)nc12 [ICEC0244] below 80%, do you know?
A: True

Q: Hi there! Is remaining activity at 0.1 µM for CC(C)c1cnn2c(NCc3ccccc3)cc(N[C@@H](CO)CCCCCCc3cncnc3)nc12 [ICEC-0174] below 80%, do you know?
A: True

Q: Hi there! Is remaining activity at 0.1 µM for CC(C)c1cnn2c(NCc3ccccc3)cc(N[C@@H](CO)CCCCCN)nc12 [ICEC0048] below 80%, do you know?
A: False
